- Test system: HL-60(TB) leukemia
- EXPERIMENTAL_PROTOCOL: NCI tumour cell line growth inhibition, 48 h
ASSAY_METRIC: GI50

Given item COc1ccc(Cc2cnc(NC(=O)c3sc4ccccc4c3Cl)s2)cc1 , the value recorded as its GI50 is 0.256 µM

Reported GI50 ( c1ccc(-c2nn(-c3ccccc3)[n+](-c3cccc4ccccc34)n2)cc1 ) = 0.386 µM

According to the records, this molecule COc1cc(C2CC(c3cc(C)ccc3C)=NN2c2ccc(S(=O)(=O)NC(=O)NCc3ccccc3)cc2)cc(OC)c1OC (stereo not drawn) displays GI50 of 3.62 µM

The measured GI50 associated with COc1cc([C@@H]2c3cc4c(cc3[C@@H](O[C@@H]3O[C@@H]5CO[C@@H](c6cccs6)O[C@H]5[C@H](O)[C@H]3O)[C@H]3COC(=O)[C@H]23)OCO4)cc(OC)c1O reads 0.119 µM

Record CC(=O)OC[C@]12CC[C@@H]([C@@H](C)C(N)=O)[C@@H]1[C@H]1CC[C@@H]3[C@@]4(C)CC[C@H](OC(C)=O)C(C)(C)[C@@H]4CC[C@@]3(C)[C@]1(C)CC2 . Reported GI50: 2.76 µM

Query CCOC(=O)c1cc(C(=O)c2cc(OC)cc(OC)c2)n2ncc3ccccc3c12 yields GI50 of 0.82 µM

response.value for COC(=O)[C@@]1(C)CC[C@]2(C)CC[C@]3(C)C4=CC=C5C(=CC(=O)C(O)=C5C)[C@]4(C)CC[C@@]3(C)[C@@H]2C1 (field: GI50) = 0.163 µM

Lab note: measured GI50 of CCN(CC)CCCC(Nc1c2ccc(Cl)cc2nc2ccc(OC)cc12)c1ccc(F)cc1 (stereo not drawn) was 1.91 µM

----------
Could you please report measured TGI for the items listed next?
- Test system: COLO 205 colon
- EXPERIMENTAL_PROTOCOL: NCI tumour cell line growth inhibition, 48 h
Entry rule: numbers only, all in µM.

TGI recorded for this compound, [N-]=[N+]=Nc1c([N+](=O)[O-])c(Cl)nc2ccccc12 , is 3.29

response.value for NC(=S)N1N=C2c3ccccc3CC[C@H]2[C@@H]1c1cccs1 (field: TGI) = 40

Form: compound = Cc1cccc2c(N)c3cccc(C(=O)NCCN(C)C)c3nc12 ; TGI = 0.229

What the record says about Cc1cc(C)cc(Sc2c([N+](=O)[O-])ncn2C)c1 : TGI is 31.8

TGI recorded for this compound, CC[C@@H](C(=O)[C@@H](C)[C@@H](O)[C@H](C)CCc1ccc(C)c(O)c1C(=O)O)[C@H]1O[C@](CC)([C@H]2CC[C@](O)(CC)[C@H](C)O2)C[C@@H]1C , is 4.76

// CCCN(CCC)CCCNC(=O)c1cc2c(-c3ccc(OC)c(OC)c3)nn(C)c2s1 : TGI value = 30.3

For O=C1C(Cl)=C(Nc2cccc(O)c2)C(=O)N1c1ccc(Cl)c(Cl)c1 the compound record lists TGI as 89.9

Briefly, TGI measured for CCN(CC)Cc1nc(C2CCC([N+](=O)[O-])O2)no1 (stereo not given) : 30.3

// CN(C)CCNC(=O)c1cccc2nc3cccc(F)c3nc12 : TGI value = 1.89

----------
- Test system: KM12 colon
- EXPERIMENTAL_PROTOCOL: NCI tumour cell line growth inhibition, 48 h
Task for the reader: assign each of the following compounds its reported TGI.

The reported value for N#Cc1c(NC(=O)CN2CCOCC2)sc2c1CCCC2 in terms of TGI is > 25 µM

TGI reading for N=C(N)n1[nH]c2c(c1=O)CCCC2 : > 100 µM

Note to self: TGI recorded for Cc1ccc(/C(=C/C=C(C#N)C#N)Sc2cc(Cl)ccc2Cl)cc1 was 28 µM

The compound O=c1c2ccccc2nc(-c2ccccc2)n1NC(=S)Nc1ccc(Cl)cc1[N+](=O)[O-] showed TGI equal to > 100 µM

In plain terms, O=C(Nc1ccc(Cl)cc1)/C(Cc1cccc[n+]1[O-])=N\Nc1ccc([N+](=O)[O-])cc1[N+](=O)[O-] has a documented TGI of > 100 µM

Looking up Cn1cc(C[C@@H](N)C(=O)O)c2ccccc21 , I see its TGI listed as > 100 µM

TGI reading for COc1cc2c(cc1OC)C1(c3ccccc3)CN(C2)Cc2cc(OC)c(OC)cc21 : > 100 µM

The compound identified as CCOC(=O)c1cc2c([nH]1)C(=O)CC1=C2CCN1Cc1ccccc1 registered its TGI at 33.2 µM

So, C#COc1cccc(Nc2ncnc3ncc(NC(=O)CCl)cc23)c1 ? Its TGI was > 62.5 µM

Given item CCCN(CCCCN1C(=O)c2ccccc2C1=O)CC1COc2ccccc2O1 (stereo not given) , the value recorded as its TGI is > 100 µM

Note to self: TGI recorded for COc1ccc(/C=C\c2cc(OC)c(OC)c(OC)c2)cc1OC(=O)c1cccc(Cn2cc(CCOC(=O)c3cccc(Cn4nnc5c4C(=O)c4ccccc4C5=O)c3)nn2)c1 was > 77.6 µM

TGI reported for this compound N#CCC(=O)N/N=C1\C(=O)N(c2ccc(Cl)cc2)C(=O)C(=O)C1c1nc2ccccc2o1 (stereo not given) : > 100 µM

Noted for C=C(C)[C@@H]1CCC2=C[C@@H](OC2=O)[C@@H](C(=C)C)C(=O)/C=C(/C)C(=O)C1 : its TGI reads 63.7 µM

The compound listed as COc1cc2c3c(n(C)c(=O)c2cc1OC)-c1cc2c(cc1/C3=C\CCCBr)OCO2 shows TGI equal to > 100 µM

Record Cc1cc(NS(=O)(=O)c2ccc(NC(=O)c3cccc4c(Nc5ccc(S(=O)(=O)Nc6cc(C)on6)cc5)c5ccccc5nc34)cc2)no1 . Reported TGI: > 100 µM

Entry under test: Cc1cc(C(=O)N2CCN(Cc3ccccc3)CC2)c(C)o1 . Its TGI was > 100 µM

Oc1c(-c2ccccc2)sc2ccccc12 yielded TGI of 75.6 µM

Record summary for CC(=O)NCCc1c[nH]c2ccc(Cl)cc12 : reported TGI = > 100 µM

The compound listed as O=C(OCC12CC3CC(CC(C3)C1)C2)c1ccc(NCc2cc(O)ccc2O)cc1 shows TGI equal to 4.52 µM

Value of TGI reported for the compound O=C1C(Cl)=C(Nc2cccc(O)c2)C(=O)N1c1ccc(Cl)c(Cl)c1 is 32.5 µM
